# assay system: Cellular tumor antigen p53 (Homo sapiens)
# measurement protocol: p53 stabilisation in HPV-positive human cells, imaging, p53-positive nuclei imaging, 24 h, 48 h (AID 1508601)
# condition description: 24/48 h, Library stock concentration: 80 uM, stronger effect = higher value
Hit rate of the full screen: of about 5,700 compounds, about 85 (1%) were called active. Only a selection was taken, and actives are over-represented in it overall.
Entries and their p53-positive nuclei, normalised values follow.

Would you please look over these solved cases?
INSERT INTO assay_data (compound, measurement) VALUES
  ('Cc1sc2c(c1C)C(c1ccc(Cl)cc1)=NC(CC(=O)Nc1ccc(O)cc1)c1nnc(C)n1-2 (centres undefined)', '0.0544% (inactive)'),
  ('C[C@]12C=CC(=O)C=C1CC[C@@H]1[C@@H]2CC[C@]2(C)OC(=O)CC[C@@H]12', '-0.0445% (inactive)'),
  ('NCCc1ccccc1Br', '0.0704% (inactive)');

Next compound, p53-positive nuclei, normalised to be filled in.
Enquiry: // p53-positive nuclei, normalised lookup, key: CC1=C(O)C(=O)C=C2C1=CC=C1[C@@]2(C)CCC2(C)C3C[C@](C)(C(=O)O)CC[C@]3(C)CC[C@]12C (some centres undefined)
Return: 0.0324% (inactive)

----------
Entries and their p53-positive nuclei, normalised values follow.
# assay system: Cellular tumor antigen p53 (Homo sapiens) (UniProt P04637)
# Sequence (P04637 whole entry, looked up): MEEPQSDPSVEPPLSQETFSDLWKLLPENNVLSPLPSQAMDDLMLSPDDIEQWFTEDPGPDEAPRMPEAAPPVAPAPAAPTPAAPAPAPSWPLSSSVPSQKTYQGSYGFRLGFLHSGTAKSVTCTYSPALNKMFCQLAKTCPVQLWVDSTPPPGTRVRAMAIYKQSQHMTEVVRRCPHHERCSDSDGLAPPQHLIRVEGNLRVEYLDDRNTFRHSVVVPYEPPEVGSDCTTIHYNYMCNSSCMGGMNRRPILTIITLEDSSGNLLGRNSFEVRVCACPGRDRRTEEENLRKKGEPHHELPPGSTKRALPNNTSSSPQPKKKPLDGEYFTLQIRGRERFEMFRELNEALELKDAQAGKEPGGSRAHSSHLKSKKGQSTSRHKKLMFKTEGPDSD
# measurement protocol: p53 stabilisation in HPV-positive human cells, imaging, p53-positive nuclei imaging, 24 h, 48 h (AID 1508601)
# condition description: 24/48 h, measured here: p53 positive nuclei at 24 h, Library stock concentration: 2 mM, stronger effect = higher value
Screen size: about 5,700 compounds; about 85 (1%) were called active. For the sample, actives were picked, then their nearest neighbours and some compounds at random.
Dear colleague, please return just the value in %, with no unit written.

Would you please look over these solved cases?
INSERT INTO results (molecule, assay_system, unit_of_measure, measurement) VALUES
  ('Cc1sc2c(c1C)C(c1ccc(Cl)cc1)=NC(CC(=O)Nc1ccc(O)cc1)c1nnc(C)n1-2 (stereo unspecified)', 'Cellular tumor antigen p53 (Homo sapiens) (UniProt P04637)', '%', 19.6),
  ('NCCc1ccccc1Br', 'Cellular tumor antigen p53 (Homo sapiens) (UniProt P04637)', '%', -0.0657),
  ('CN1CCC(C(=O)c2cccc(NC(=O)c3c(F)cc(F)cc3F)n2)CC1', 'Cellular tumor antigen p53 (Homo sapiens) (UniProt P04637)', '%', 0.0583),
  ('O=C1C(=O)c2cccc3cccc1c23', 'Cellular tumor antigen p53 (Homo sapiens) (UniProt P04637)', '%', 0.208),
  ('C[C@]12C=CC(=O)C=C1CC[C@@H]1[C@@H]2CC[C@]2(C)OC(=O)CC[C@@H]12', 'Cellular tumor antigen p53 (Homo sapiens) (UniProt P04637)', '%', 0.166);

Next molecule, p53-positive nuclei, normalised to be filled in.
Enquiry: Give Cellular tumor antigen p53 (Homo sapiens) (UniProt P04637) p53-positive nuclei, normalised for CC1=C(O)C(=O)C=C2C1=CC=C1[C@@]2(C)CCC2(C)C3C[C@](C)(C(=O)O)CC[C@]3(C)CC[C@]12C (stereo partly specified)
Return: 0.116

----------
# assay system: Cellular tumor antigen p53 (Homo sapiens)
# measurement protocol: p53 stabilisation in HPV-positive human cells, imaging, p53-positive nuclei imaging, 24 h, 48 h (AID 1508601)
# condition description: 24/48 h, stronger effect = higher value, concentration not given here
The whole screen tested about 5,700 compounds, of which about 85 (1%) were called active. What follows is part of a selection rich in actives, with near analogues and random picks from the rest.
parameter: p53-positive nuclei, normalised (%)
Dear colleague, please return just the value in %, with no unit written.

INSERT INTO results (mol, assay_system, measurement) VALUES
  ('CC[C@@]1(O)C[C@H](O[C@H]2C[C@H](N(C)C)[C@H](O)[C@H](C)O2)c2c(cc3c(c2O)C(=O)c2c(O)ccc(O)c2C3=O)[C@H]1C(=O)OC', 'Cellular tumor antigen p53 (Homo sapiens)', 92.8),
  ('CC[C@@]1(O)C[C@H](O)c2c(cc3c(c2O)C(=O)c2c(O)ccc(O)c2C3=O)[C@H]1C(=O)OC', 'Cellular tumor antigen p53 (Homo sapiens)', 23.5),
  ('CCCCC/C=C\C/C=C\C/C=C\C/C=C\CCCC(=O)N[C@H](C)COP(=O)(O)O', 'Cellular tumor antigen p53 (Homo sapiens)', 0.124),
  ('CCCCC/C=C\C/C=C\C/C=C\C/C=C\CCCC(=O)NC1CC1', 'Cellular tumor antigen p53 (Homo sapiens)', -0.0789);

Enquiry: // p53-positive nuclei, normalised lookup, key: "CN(C)C(=S)SSC(=S)N(C)C"
Return: 90.3

Enquiry: // p53-positive nuclei, normalised lookup, key: "O=c1c2cc(F)ccc2ncn1Cc1cn2ccccc2n1"
Return: -0.262

Enquiry: // p53-positive nuclei, normalised lookup, key: "CN1CCC(N(C)CCC2CCOCC2)CC1"
Return: -0.0157

Enquiry: // p53-positive nuclei, normalised lookup, key: "CCCCC/C=C\C/C=C\C/C=C\C/C=C\CCCC(=O)NC"
Return: 0.0321

Enquiry: // p53-positive nuclei, normalised lookup, key: "CCCCC/C=C\C/C=C\C/C=C\C/C=C\CCCC(=O)Nc1cccc([N+](=O)[O-])c1"
Return: -0.154

Enquiry: // p53-positive nuclei, normalised lookup, key: "CCCCCCCCCCCCCCCCOC[C@H](COP(=O)([O-])OCC[N+](C)(C)C)OC(C)=O"
Return: -0.0025

Enquiry: // p53-positive nuclei, normalised lookup, key: "O=C1c2ccccc2C(=O)c2ccccc21"
Return: -0.00139

Enquiry: // p53-positive nuclei, normalised lookup, key: "C=C(C)[C@@H]1CCC(C)=C[C@H]1c1c(OC)cc(CCCCC)cc1OC"
Return: 0.00281

Enquiry: // p53-positive nuclei, normalised lookup, key: "c1cc(N2CCNCC2)c2cnccc2c1"
Return: -0.118

Enquiry: // p53-positive nuclei, normalised lookup, key: "CC[n+]1c(-c2ccccc2)c2cc(N)ccc2c2ccc(N)cc21"
Return: 34.3

Enquiry: // p53-positive nuclei, normalised lookup, key: "CCCCC/C=C\C/C=C\C/C=C\C/C=C\CCCCOC(CO)CO"
Return: 0.099

----------
# assay system: Cellular tumor antigen p53 (Homo sapiens) (UniProt P04637)
# measurement protocol: p53 stabilisation in HPV-positive human cells, imaging, p53-positive nuclei imaging, 24 h, 48 h (AID 1508601)
# condition description: 24/48 h, Library stock concentration: 1.67 mM, stronger effect = higher value
Hit rate of the full screen: of about 5,700 compounds, about 85 (1%) were called active. The entries come from a sample that favours actives as a whole.
parameter: p53-positive nuclei, normalised

INSERT INTO results (compound, measurement) VALUES
  ('COc1ccc2c3c([nH]c2c1)C(CC(C)C)N1C(=O)C(CCC(=O)OC(C)(C)C)NC(=O)C1C3 (centres undefined)', '-0.358% (inactive)'),
  ('CC1=C(O)C(=O)C=C2C1=CC=C1[C@@]2(C)CC[C@@]2(C)C3C[C@](C)(C(=O)O)CC[C@]3(C)CC[C@]12C (some centres undefined)', '8.51% (inactive)'),
  ('CC1CN(Cc2ccc(F)cc2)CCN1C(=O)COc1ccc(Cl)cc1NC(N)=O (centres undefined)', '-0.0557% (inactive)');

Next compound, p53-positive nuclei, normalised to be filled in.
Enquiry: // p53-positive nuclei, normalised lookup, key: Cc1sc2c(c1C)C(c1ccc(Cl)cc1)=NC(CC(N)=O)c1nnc(C)n1-2 (centres undefined)
Return: 12.8% (inactive)

----------
# measurement protocol: p53 stabilisation in HPV-positive human cells, imaging, p53-positive nuclei imaging, 24 h, 48 h (AID 1508601)
# condition description: 24/48 h, measured here: cell number at 48 h, Library stock concentration: 4.6 uM
Screen size: about 5,700 compounds; about 85 (1%) were called active. Many of the other results were omitted from the sample, so actives are more common in it than they were.
Entries and their nuclei count, normalised values follow.
Write the numeric value and follow it with the unit.

Would you please look over these solved cases?
INSERT INTO assay_data (compound, parameter, measurement) VALUES
  ('CC[n+]1c(-c2ccccc2)c2cc(N)ccc2c2ccc(N)cc21', 'nuclei count, normalised', '106%'),
  ('CC1=CC(=O)c2c(O)cccc2C1=O', 'nuclei count, normalised', '120%');

Enquiry: // nuclei count, normalised lookup, key: CC1OC(O[C@H]2CC[C@@]3(C)[C@@H](CC[C@@H]4[C@H]3CC[C@]3(C)[C@@H](C5=CC(=O)OC5)CC[C@]43O)C2)CC(O)C1O (some centres undefined)
Return: 33.8%

Enquiry: // nuclei count, normalised lookup, key: OC1CN2CCC(O)[C@H]2C(O)C1O (some centres undefined)
Return: 108%
